The following molecules are listed with their measured pEC50 values.
# TARGET SYSTEM: F508del-CFTR (Homo sapiens (Human), UniProt P13569, DEL508-508)
# Sequence (P13569 other isoform, or with tags, fused parts or gaps del F508-F508): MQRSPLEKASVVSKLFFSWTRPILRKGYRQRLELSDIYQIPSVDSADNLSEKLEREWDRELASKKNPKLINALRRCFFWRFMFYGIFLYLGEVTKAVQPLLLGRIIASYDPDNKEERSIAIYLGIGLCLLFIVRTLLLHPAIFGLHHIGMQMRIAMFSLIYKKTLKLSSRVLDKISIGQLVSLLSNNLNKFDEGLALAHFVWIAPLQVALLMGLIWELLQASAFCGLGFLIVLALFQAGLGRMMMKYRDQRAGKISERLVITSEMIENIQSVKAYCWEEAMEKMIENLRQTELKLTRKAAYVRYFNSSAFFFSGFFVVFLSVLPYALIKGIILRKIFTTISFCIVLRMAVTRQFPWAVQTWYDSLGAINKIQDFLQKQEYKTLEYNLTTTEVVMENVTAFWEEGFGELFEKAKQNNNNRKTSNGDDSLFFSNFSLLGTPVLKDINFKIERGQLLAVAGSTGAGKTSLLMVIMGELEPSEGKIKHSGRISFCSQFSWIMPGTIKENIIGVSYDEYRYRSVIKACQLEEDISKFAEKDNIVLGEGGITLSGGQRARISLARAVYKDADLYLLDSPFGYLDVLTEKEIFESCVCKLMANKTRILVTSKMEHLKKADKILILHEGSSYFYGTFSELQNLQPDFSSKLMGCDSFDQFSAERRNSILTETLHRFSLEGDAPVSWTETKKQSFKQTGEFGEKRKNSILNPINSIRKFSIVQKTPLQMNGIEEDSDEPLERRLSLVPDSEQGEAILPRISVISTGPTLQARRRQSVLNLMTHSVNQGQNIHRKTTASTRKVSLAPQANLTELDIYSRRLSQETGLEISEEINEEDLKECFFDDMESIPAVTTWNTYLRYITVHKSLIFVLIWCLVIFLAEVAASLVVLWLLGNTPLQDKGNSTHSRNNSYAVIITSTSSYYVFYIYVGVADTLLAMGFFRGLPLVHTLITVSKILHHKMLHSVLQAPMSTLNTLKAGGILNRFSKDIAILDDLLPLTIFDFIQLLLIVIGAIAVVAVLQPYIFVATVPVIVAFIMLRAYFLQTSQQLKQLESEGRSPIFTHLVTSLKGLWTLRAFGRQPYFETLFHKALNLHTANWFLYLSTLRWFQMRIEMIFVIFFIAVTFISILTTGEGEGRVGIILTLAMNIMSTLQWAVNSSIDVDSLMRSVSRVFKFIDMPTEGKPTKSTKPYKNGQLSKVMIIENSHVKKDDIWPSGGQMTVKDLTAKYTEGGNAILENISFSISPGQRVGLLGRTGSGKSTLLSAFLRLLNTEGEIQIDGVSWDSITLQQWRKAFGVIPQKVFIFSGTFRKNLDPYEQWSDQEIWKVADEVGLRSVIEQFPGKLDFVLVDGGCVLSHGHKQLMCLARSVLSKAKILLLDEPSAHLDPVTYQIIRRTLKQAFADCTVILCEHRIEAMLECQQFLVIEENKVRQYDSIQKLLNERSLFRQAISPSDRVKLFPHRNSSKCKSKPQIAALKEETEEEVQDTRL
# EXPERIMENT: Membrane potential optical (fluorescent voltage sensing dye, FLIPR III) HTS assay for F508del-CFTR modulators
# Type: cell-based
# STATED CONDITIONS: F508del NIH 3T3 cells, assay 5A-A1; read-out: CFTRdF508 EC50
pEC50: −log10 of the molar value.

Worked cases, answers included:
{"columns": ["MOLECULE", "pEC50"],
 "data": [
  ["C[C@@H]1CN(c2nc(-n3ccc(OCC4(C(F)(F)F)CC4)n3)ccc2C(=O)NS(=O)(=O)c2ccccc2O)C(C)(C)C1 [Compound 20]", "6.00 to 7.00"],
  ["C[C@H]1CN(c2nc(-n3ccc(OCCC4(C(F)(F)F)CC4)n3)ccc2C(=O)NS(=O)(=O)c2ccccc2)C(C)(C)C1 [Compound 2]", "6.00 to 7.00"],
  ["C[C@@H]1CN(c2nc(-n3ccc(OCC4CC45CC5)n3)ccc2C(=O)NS(=O)(=O)c2ccccc2)C(C)(C)C1 (some centres unmarked) [Compound 60]", "6.00 to 7.00"]
]}

### Prompt Quickly give me recorded pEC50 for C[C@@H]1CN(c2nc(-n3ccc(O[C@@H]4C[C@H]4C(F)(F)F)n3)ccc2C(=O)NS(=O)(=O)c2ccccc2)C(C)(C)C1 (racemic) [Compound 19]
### Response 6.00 to 7.00

### Prompt Using known records, supply pEC50 for C[C@@H]1CN(c2nc(-n3ccc(OCC4(C(F)(F)F)CC4)n3)ccc2C(=O)NS(=O)(=O)c2cccc(C#N)c2)C(C)(C)C1 [Compound 25]
### Response > 7.00

### Prompt Let me know recorded pEC50 for C[C@@H]1CN(c2nc(-n3ccc(OCC4(C(F)(F)F)CC4)n3)ccc2C(=O)NS(=O)(=O)c2cccc(F)c2)C(C)(C)C1 [Comp. 51] , thanks.
### Response > 7.00

----------
# PXR Max Induction (% of rifampicin) annotations
# TARGET SYSTEM: human PXR (Homo sapiens (Human), UniProt O75469)
# Sequence (O75469 whole entry): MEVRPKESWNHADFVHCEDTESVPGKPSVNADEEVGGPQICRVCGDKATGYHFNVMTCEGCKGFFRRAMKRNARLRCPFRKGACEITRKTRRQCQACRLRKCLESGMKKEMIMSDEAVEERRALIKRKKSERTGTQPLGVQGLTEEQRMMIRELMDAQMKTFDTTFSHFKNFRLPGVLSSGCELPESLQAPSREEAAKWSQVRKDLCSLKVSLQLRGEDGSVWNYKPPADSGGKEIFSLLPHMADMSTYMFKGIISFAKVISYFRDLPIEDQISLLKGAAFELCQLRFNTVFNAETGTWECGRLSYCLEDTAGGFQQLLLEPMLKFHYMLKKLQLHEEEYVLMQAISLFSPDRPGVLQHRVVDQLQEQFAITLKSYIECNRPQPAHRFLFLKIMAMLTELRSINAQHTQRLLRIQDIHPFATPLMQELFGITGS
# EXPERIMENT: PXR assay (PXR mediated CYP3A4 induction, DPX-2 cell line)
# Assay type: cell-based
# STATED CONDITIONS: DPX-2 cells, 48 hours, 0.1 to 60 μM

{"columns": ["COMPOUND", "PXR Max Induction (% of rifampicin)"],
 "data": [
  ["COc1ccc(S(=O)(=O)NC(=O)c2ccc(-n3ccc(OCC4(C(F)(F)F)CC4)n3)nc2N2C[C@@H](C)CC2(C)C)c(C)c1 [Comp. 57]", "2 % of rifampicin"],
  ["COc1cccc(S(=O)(=O)NC(=O)c2ccc(-n3ccc(OCC4(C(F)(F)F)CC4)n3)nc2N2C[C@@H](C)CC2(C)C)c1 [Comp. 49]", "19 % of rifampicin"],
  ["Cc1ccccc1S(=O)(=O)NC(=O)c1ccc(-n2ccc(OCC3C(C)(C)C3(C)C)n2)nc1N1C[C@@H](C)CC1(C)C [Compound 15]", "0 % of rifampicin"]
]}

### Prompt Name the recorded PXR Max Induction (% of rifampicin) of the item C[C@@H]1CN(c2nc(-n3ccc(OCC4C(C)(C)C4(C)C)n3)ccc2C(=O)NS(=O)(=O)c2ccccc2)C(C)(C)C1 [Comp. 30] in your answer.
### Response 0 % of rifampicin

### Prompt Please indicate PXR Max Induction (% of rifampicin) recorded for COc1ccccc1S(=O)(=O)NC(=O)c1ccc(-n2ccc(OCC3(C(F)(F)F)CC3)n2)nc1N1C[C@@H](C)CC1(C)C [Comp. 53]
### Response 39 % of rifampicin

### Prompt Identify measured PXR Max Induction (% of rifampicin) corresponding to Cc1ccccc1S(=O)(=O)NC(=O)c1ccc(-n2ccc(OCC3(C(F)(F)F)CC3)n2)nc1N1C[C@@H](C)CC1(C)C [Compound 23]
### Response 22 % of rifampicin

### Prompt Give PXR Max Induction (% of rifampicin) for the following compound: C[C@@H]1CN(c2nc(-n3ccc(OCC(C)(C)C)n3)ccc2C(=O)NS(=O)(=O)c2ccccc2)C(C)(C)C1 [Comp. B, reference compound]
### Response 9 % of rifampicin

### Prompt Specify reported PXR Max Induction (% of rifampicin) for the compound shown: C[C@@H]1CN(c2nc(-n3ccc(OCC4(C(F)(F)F)CC4)n3)ccc2C(=O)NS(=O)(=O)c2ccc(O)cc2)C(C)(C)C1 [Compound 22]
### Response 4 % of rifampicin
